The entries below come with measured cytotoxicity at 41 h, 10 µM values attached.
# EXPERIMENT_SUMMARY: in vitro
# REPORTED_CONDITIONS: human
MEASURED_ATTRIBUTE: cytotoxicity at 41 h, 10 µM (%)

> print(dat)
                                   compound           measured.attribute  measured
1  CC(=O)O[C@@H]1C[C@H]2C(C)(C)C(=O)CC[C@]2(C)[C@H]2CC[C@@]3(C)[C@H](c4ccoc4)OC(=O)[C@H]4O[C@]43[C@@]21C [DIHYDROGEDUNIN]  cytotoxicity at 41 h, 10 µM     -17.9
2  Cc1cc2nc3c(=O)[nH]c(=O)nc-3n(C[C@H](O)[C@H](O)[C@H](O)CO)c2cc1C [RIBOFLAVIN]  cytotoxicity at 41 h, 10 µM       1.1
3  C[C@H](CCC(=O)O)[C@H]1CC[C@H]2[C@@H]3[C@@H](O)C[C@@H]4C[C@H](O)CC[C@]4(C)[C@H]3CC[C@]12C [URSODIOL]  cytotoxicity at 41 h, 10 µM     -10.9
4  N[C@@H](CCC(=O)N[C@@H](CS)C(=O)NCC(=O)O)C(=O)O [GLUTATHIONE]  cytotoxicity at 41 h, 10 µM       -32
5  Cc1c(C(=O)O)c(O)cc2c1C(=O)c1c(O)c([C@@H]3O[C@H](CO)[C@@H](O)[C@H](O)[C@H]3O)c(O)c(O)c1C2=O [CARMINIC ACID]  cytotoxicity at 41 h, 10 µM      -7.5
6  CCOC(=O)c1c(C)cc(O)cc1O [ORSELLINIC ACID, ETHYL ESTER]  cytotoxicity at 41 h, 10 µM      -8.3
7        CC1=CC(=O)c2ccccc2C1=O [MENADIONE]  cytotoxicity at 41 h, 10 µM        29

---

# Test system: HCT-8 host cells (Hs18S)
# REPORTED_CONDITIONS: human, 41 h, 10 μM
Structures can show the parent of a compound that is named as a salt.
Criterion: Hs18S ΔCT strictly less than -0.06. Met: Criterion met. Not met: Criterion not met.

> print(dat)
                                   compound              group
1  NCC(O)c1ccc(O)cc1 (stereo not drawn) [OCTOPAMINE HYDROCHLORIDE]      Criterion met
2                 Cc1cc(=O)oc2c(O)c(O)ccc12      Criterion met
3  CC1(C)C[C@@H]2C(=O)CC[C@H]3O[C@]3(C)CC[C@H]21  Criterion not met
4  C=CC(C1=CC(=O)C(OC)=CC1=O)c1ccccc1 (stereo not drawn)  Criterion not met
5             COc1c2ccoc2c(OC)c2oc(=O)ccc12      Criterion met
6  Cc1cc(O)c(C=O)c2c1C(=O)Oc1c(COC(=O)/C=C/C(=O)O)c(O)c(C(=O)O)c(C)c1O2  Criterion not met
7   NC(=O)NC1NC(=O)NC1=O (stereo not drawn)      Criterion met
8  O=Cc1ccccc1O[C@@H]1O[C@H](CO)[C@@H](O)[C@H](O)[C@H]1O  Criterion not met
